assayed.target: UniProt Q96EB6
Sequence (Q96EB6 1-747): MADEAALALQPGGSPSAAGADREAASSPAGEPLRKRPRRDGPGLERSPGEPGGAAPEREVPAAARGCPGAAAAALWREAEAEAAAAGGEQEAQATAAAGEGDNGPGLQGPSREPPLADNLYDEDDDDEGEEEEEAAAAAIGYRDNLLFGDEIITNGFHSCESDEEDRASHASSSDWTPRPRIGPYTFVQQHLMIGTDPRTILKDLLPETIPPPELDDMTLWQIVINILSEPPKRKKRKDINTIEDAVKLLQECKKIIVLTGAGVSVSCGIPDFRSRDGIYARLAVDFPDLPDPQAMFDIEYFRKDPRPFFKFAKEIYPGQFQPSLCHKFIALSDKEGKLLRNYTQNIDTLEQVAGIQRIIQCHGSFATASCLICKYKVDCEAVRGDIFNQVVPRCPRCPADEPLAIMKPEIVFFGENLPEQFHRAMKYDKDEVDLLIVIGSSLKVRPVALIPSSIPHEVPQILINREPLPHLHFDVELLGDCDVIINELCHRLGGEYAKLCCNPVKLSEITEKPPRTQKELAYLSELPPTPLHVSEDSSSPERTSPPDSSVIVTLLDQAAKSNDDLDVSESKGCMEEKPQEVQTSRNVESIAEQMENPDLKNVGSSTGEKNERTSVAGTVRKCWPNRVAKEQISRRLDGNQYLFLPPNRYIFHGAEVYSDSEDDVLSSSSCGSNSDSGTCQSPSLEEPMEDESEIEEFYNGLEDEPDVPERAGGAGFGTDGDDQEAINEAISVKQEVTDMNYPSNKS
experiment.notes: TAMRA based mass spectrometry assay of SIRT1 activity
Type: biochemical
condition.parameters: TAMRA assay; concentration giving 150% activation of SIRT1

sample.smiles | TAMRA EC1.5 (μM)
Cc1cc(NC(=O)c2cnn3ccc(-c4ccccc4OC(F)(F)F)nc23)nc(C)n1 | A (EC1.5<1 μM)
COc1ccc(NC(=O)c2c(C)nc3ccc(-c4ccccc4C)nn23)nn1 | B (EC1.5 1-25 μM)
Cc1cc2ncc(C(=O)Nc3ccnc(N4CCC4)c3)n2nc1-c1ccccc1C(F)(F)F | A (EC1.5<1 μM)
Cc1cc2ncc(C(=O)Nc3ccccn3)n2nc1-c1ccccc1C(F)(F)F | B (EC1.5 1-25 μM)

All values here come from patent US9957271B2.
